Assay: NCI Yeast Anticancer Drug Screen. Data for the sgs1 strain (AID 173);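 note: 0% = growth of vehicle-only control cultures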
Details: S. cerevisiae sgs1 mutant, at 11.0 µM, hits give high values
Experimental: Growth inhibition of yeast strains with defined genetic alterations is measured as a screen for potential anti-cancer activity. Selected strains with alterations in DNA damage repair or cell cycle control were exposed to compounds and growth inhibition was measured relative to vehicle treated controls. The strain used in this assay is sgs1
The panel holds about 79,000 compounds, 15% with a hit somewhere; the sample as a whole holds those more often.
Lab note: anything with growth inhibition at or over 20% counts as fulfilled; the rest go in not fulfilled.

# Compound, Assigned Class
data = [
    ("O=c1[nH]c(=O)n(CCCO)cc1F", "not fulfilled"),
    ("COc1ccc(C(=O)NCCN(C)C)c2nc3ccccc3cc12", "not fulfilled"),
    ("CCC1SC(=S)N(c2ccc(Cl)cc2)C1=O (stereo unspecified)", "fulfilled"),
    ("O=c1oc(C(C(F)(F)F)C(F)(F)F)nc2ccccc12", "fulfilled"),
    ("Clc1ccc(C(c2ccc(Cl)cc2)N2CCNCC2)cc1", "not fulfilled"),
    ("O=Cn1c2ccccc2c2ccccc21", "not fulfilled"),
    ("O=C(N/N=C/c1ccc2c(c1)CCC2)c1ccccc1[N+](=O)[O-]", "fulfilled"),
    ("OC(c1ccc(Br)cc1)(c1cccs1)C1CC1 (stereo unspecified)", "fulfilled"),
    ("Cc1ccc2nc(N/N=C/c3ccc(C)s3)cc(C)c2c1", "not fulfilled"),
    ("CC(=O)CC[N+](C)(C)C", "not fulfilled"),
    ("N=C(N)c1ccc(N=Nc2c(O)ccc3c2[nH]c2ccccc23)cc1", "fulfilled"),
    ("CN(C)CCNC(=O)c1cccc2nc3c(ccc4ccccc43)nc12", "not fulfilled"),
    ("O=C(O)CN(CCNC(=O)OCC1c2ccccc2-c2ccccc21)CCNC(=O)OCC1c2ccccc2-c2ccccc21", "not fulfilled"),
    ("CN(C)CCn1c2ccccc2c2nc3cc4ccccc4cc3nc21", "fulfilled"),
    ("O=C1c2ccc(O)cc2C(=O)c2c(O)ccc(O)c21", "fulfilled"),
    ("Nc1nc(Nc2ccccc2)nc(Nc2ccccc2)n1", "not fulfilled"),
    ("O=C(O)/C=C\\C(=O)NNc1ccc(Br)cc1", "fulfilled"),
    ("O=C1C(Br)=CC(Br)(Br)C=C1Br", "fulfilled"),
    ("CN(C)CCC(=O)c1c[nH]c2ccccc12", "not fulfilled"),
    ("C[n+]1c(-c2ccc(NC(=O)c3ccc(C(=O)Nc4ccc(-c5cn6ccccc6[n+]5C)cc4)cc3)cc2)cn2ccccc21", "fulfilled"),
    ("O=C(CSS(=O)(=O)O)c1ccccc1", "not fulfilled"),
    ("Cc1ccc2c(/C=C/c3ccc(N(C)C)cc3)ccnc2c1C", "not fulfilled"),
    ("CN1CCN(c2ccc3nc(-c4ccc5nc(-c6ccc(O)cc6)[nH]c5c4)[nH]c3c2)CC1", "fulfilled"),
    ("O=C1c2ccccc2-c2ccc(NC(=O)C3CCCCC3C(=O)O)cc21 (stereo unspecified)", "not fulfilled"),
    ("CSc1ccc2c(c1)C(N1CCN(C)CC1)Cc1ccccc1S2 (stereo unspecified)", "not fulfilled"),
    ("CN(NC(=O)/C(=C/C=C/c1ccccc1)NC(=O)c1ccccc1)C1=C(Cl)C(=O)[N+](c2ccccc2)=CC1", "fulfilled"),
    ("COc1cc(C(C)C(C(=O)O)C(=O)C(=O)O)cc(OC)c1OC (stereo unspecified)", "not fulfilled"),
    ("O=C1C=CC(=Nc2ccc3c(c2)Cc2cc(Cl)ccc2-3)O1", "fulfilled"),
    ("[N-]=[N+]=NC1CC(n2ccc(=O)[nH]c2=O)OC1COC(c1ccccc1)(c1ccccc1)c1ccccc1 (stereo unspecified)", "not fulfilled"),
    ("Cc1cnc(/C=N\\NC(N)=S)c2cccc(N)c12", "not fulfilled"),
    ("Cc1nc2ccc(Br)cc2c(=O)n1-c1ccc(NC2OCC(O)C(O)C2O)cc1 (stereo unspecified)", "fulfilled"),
    ("Cc1ccc(P(c2ccc(C)cc2)c2ccc(C)cc2)cc1", "not fulfilled"),
    ("O=c1c(Br)cc2c(-c3ccccc3)c3cc(Br)c(O)c(Br)c3oc-2c1Br", "fulfilled"),
    ("O=[N+]([O-])c1ccc2nnnn2c1", "not fulfilled"),
    ("Cc1cccc[c]1[Sn]([Cl])([S]/C(C#N)=N/N=C/c1ccc(N(C)C)cc1)[c]1ccccc1C", "not fulfilled"),
    ("CCOc1ccccc1N1C(=O)CC(Sc2ccccc2N)C1=O (stereo unspecified)", "not fulfilled"),
]

###

Experiment: NCI Yeast Anticancer Drug Screen. Data for the bub3 strain (AID 167)
Conditions: S. cerevisiae bub3 mutant strain, at 33.0 µM
This is part of a sample that, as a whole, favours compounds with a hit. Of some 79,000 tested, about 15% had one in any assay. Calls of active or inactive are those of the source. Cut-off read from the data, not from the text of the source: active = growth inhibition above about 70%; inactive = the rest.
Possible outcomes: active, inactive

# Compound, Assigned Class
data = [
    ("c1ccc(C2=NNC3c4ccccc4-c4ccccc4N3C2)cc1 (stereo not given)", "inactive"),
    ("[Cl][Pt+2][Cl].[NH-]CC1(C[NH-])CCCCC1", "active"),
    ("Cc1ccc(N(C=O)c2c([N+](=O)[O-])cc([N+](=O)[O-])c3c2=[N+]([O-])CN=3)cc1", "active"),
    ("CCOC(=O)C1=C(C)NC(C)=C(C(=O)OCC)C1c1ccc(Cl)cc1", "active"),
    ("O=C(CCCN1CCC2(CC1)OC(=O)N(c1ccccc1)C2=O)c1ccccc1", "inactive"),
    ("CCOC(=O)C1=C(C)NC(C)=C(C(=O)OCC)C1c1cccc([N+](=O)[O-])c1", "inactive"),
    ("CC(C)(C(=O)NN)c1ccccc1", "active"),
    ("CCC(C)C(=O)OCC(=O)c1ccc(-c2ccccc2)cc1 (stereo not given)", "inactive"),
    ("O=C(CSS(=O)(=O)O)c1ccccc1", "inactive"),
    ("CNC(=O)OCc1c(COC(=O)NC)c(C)n(-c2ccc(Cl)c(Cl)c2)c1C", "active"),
    ("Cc1c(N=Nc2ccc(Cl)cc2)c(C)n(C2OC(CO)C(O)C(O)C2O)c(=S)c1C#N (stereo not given)", "inactive"),
    ("O=C(O)/C=C\\C(=O)NNc1ccc(Br)cc1", "active"),
    ("COc1ccc2cc(CN3CCC(C4CCN(Cc5ccc6cc(OC)ccc6c5)CC4)CC3)ccc2c1", "inactive"),
    ("Cc1cnccc1N=Nc1ccc(N(C)C)cc1", "inactive"),
    ("CCCC(=O)OC(OC(=O)CCC)c1ccc([N+](=O)[O-])o1", "inactive"),
]

###

# growth inhibition annotations
Assay: NCI Yeast Anticancer Drug Screen. Data for the mec2-1 strain (AID 157)
Conditions: S. cerevisiae mec2-1 strain, at 100.0 µM, hits give high values
Compounds without any hit were thinned out: in the full panel of roughly 79,000, 15% have a hit.
Metric: growth inhibition (%)

# Compound, Metric, Value Unit, Quantitative Readout
rows = [
    ("S=c1[nH]nc(Cc2ccccc2)c(=S)[nH]1", "growth inhibition", "%", 96),
    ("O=S(=O)(O)c1ccc2c(N=Nc3c(O)ccc4ccccc34)cccc2c1", "growth inhibition", "%", 84),
    ("NCC(O)CSCc1ccc(Cl)cc1 (stereo not drawn)", "growth inhibition", "%", 3),
    ("CCN(CC)CCSc1c2ccccc2nc2cc(NCC(=O)Nc3ccccc3-c3ccccc3NC(=O)CNc3ccc4c(SCCN(CC)CC)c5ccccc5nc4c3)ccc12", "growth inhibition", "%", 97),
    ("CCCCCCC(CCl)c1sc(-c2csc(CCNC(=O)OC(C)(C)C)n2)nc1C(=O)OC (stereo not drawn)", "growth inhibition", "%", 96),
    ("c1cc(Nc2ccc3c(c2)OCO3)c2cc(C3CCCCC3)ccc2n1", "growth inhibition", "%", 72),
    ("CCCCCCCCCCCCCCCCOCC(Cl)COP(=O)(O)OP(=O)(O)OCC1OC(n2cnc3c(N)ncnc32)C(O)C1O (stereo not drawn)", "growth inhibition", "%", 47),
    ("CN(C)CCC(=O)c1c[nH]c2ccccc12", "growth inhibition", "%", 64),
    ("CCCCOc1ccc(Nc2c3ccccc3nc3ccccc23)cc1", "growth inhibition", "%", 73),
    ("OC(c1ccc(Br)cc1)(c1cccs1)C1CC1 (stereo not drawn)", "growth inhibition", "%", 97),
    ("CCCCCCCCCC/C=C\\CC(=O)O", "growth inhibition", "%", 99),
    ("CCCC#CCOC(=O)c1cc([N+](=O)[O-])cc([N+](=O)[O-])c1", "growth inhibition", "%", 99),
    ("CC1=NN(C(=O)CC(=O)N(C(=O)c2ccccc2)c2ccc(Cl)cc2)C(=O)C1N=Nc1ccc([N+](=O)[O-])cc1 (stereo not drawn)", "growth inhibition", "%", 68),
]
